Below is a list of entries, each paired with its recorded inhibition value.
# TARGET: Hexose transporter 1 (Plasmodium falciparum) (UniProt O97467)
# PROCEDURE_SUMMARY: ST_JUDE_LEISH: Cytotoxicity at 2uM final concentration against transgenic Leishmania Mexicana promastigotes LmPfHT that are glucose transport deficient and complemented with the Plasmodium falciparum hexose transporter. Activity is measured by DNA content using SYBR green in vitro
# Format: functional

| MOLECULE | inhibition |
| --- | --- |
| CCOc1ccc(OCCCON2C(=N)N=C(N)NC2(C)C)cc1 | 0.06% |
| COc1cc2ccccc2c(OC)c1CNCCCCCCNCc1c(OC)cc2ccccc2c1OC | 7.88% |
| Cc1[nH]c(C)c(-c2ccc(-c3ccc(OC(F)(F)F)cc3)nc2)c(=O)c1Br | 8.43% |
| COc1cc2ncnc(NCCc3ccccc3Cl)c2cc1OC | -0.48% |
| CC(=O)Nc1nc(C(=O)Nc2ccc(-c3cccc(-c4nc5ccccc5[nH]4)c3)cc2)cs1 | 2.85% |
| COc1cc(NC(=O)c2ccc3c(=O)n(Cc4ccccc4)c(=S)[nH]c3c2)cc(OC)c1OC | 7.58% |
| COc1ccc(-c2cc(C(=O)N[C@@H](CC3CCCCC3)C(=O)NC3CCCc4ccccc43)ccc2O)cc1 (some centres undefined) | -0.02% |
| CCc1sc(-c2ccc(C(C)(C)C)cc2)nc1C(=O)NCCCN1CCCC1=O | -2.22% |
| O=C(NC1CCN(CCN2CCC(c3c[nH]c4ccccc34)CC2)CC1)c1ccc(-c2ccc(C(F)(F)F)cc2)cc1 | 19.8% |
| Cc1c[nH]c(CCNC(=O)c2cc(-c3ccc(Cl)cc3)cs2)n1 | 0.26% |
| CCCCCCCN1CC[C@@H](CCCc2ccnc3ccc(OCCCCNC(N)=O)cc23)[C@@H](CC)C1 | 4.54% |
| CC(=O)Nc1ccc(-c2nc3ccc(-c4nc5ccc(NC(C)=O)cc5[nH]4)cc3[nH]2)cc1 | 3.79% |
| CN(C)c1ccc(-c2nnc(Sc3ccc(C#N)c([N+](=O)[O-])c3)n2Cc2ccco2)cc1 | 2.83% |
| CN1CCN(C(=O)CN2CCC3(CCC2=O)NC(=O)c2ccccc2O3)CC1 (centres undefined) | 5.1% |
| CCCCCCCN1CCC(CC(=O)Nc2ccnc3ccc(OC)cc23)C(CC)C1 (centres undefined) | -1.03% |
| COc1c(C(=O)NC2CCN(Cc3ccccc3)C2)cnc2ccccc12 (centres undefined) | 9.19% |
| CC(C)CN(c1nc(C(=O)NNC(=O)[C@H](CC2CC2)NC(=O)c2cc3cc(OCCN4CCCCC4)ccc3o2)cs1)C1CC1 | 0.58% |
| c1ccc(CSC2=NNC(c3ccccn3)S2)cc1 (centres undefined) | 3.23% |
| O=C(Nc1ccc(-c2cccc(-c3nc4cc(F)ccc4[nH]3)c2)cc1)Nc1ccc(F)c(F)c1F | 7.02% |
| C=CCn1c(C)cc(C(=O)COc2ccc(S(=O)(=O)N3CCOCC3)cc2[N+](=O)[O-])c1C | 0.91% |
| COc1ccc(CNC(=O)c2cnc3c(O)cccc3c2Nc2cccc(NC(=O)c3ccc(-c4ccccc4)cc3)c2)cc1 | 79.7% |
| NCc1cccc(-c2ccc3ccnc(N)c3c2)c1 | 0.05% |
| N#Cc1ccc(/C=C/C(=O)NCCCCCN2CCN(C(=O)Nc3ccc(Cl)c(C(F)(F)F)c3)CC2)cc1 | 4.08% |
| CCn1c(-c2nonc2N)nc2c(-c3cccc(NC(=O)Nc4cccc(OC)c4)c3)ncc(OCCCN)c21 | 2.8% |
| COc1cc2nc(NCc3ccc(S(N)(=O)=O)cc3)nc(Nc3ccc(Oc4ccccc4)cc3)c2cc1OC | 4.39% |
| Cc1ccc(-n2nc(-c3ccccc3)c3cc(C(=O)NCCN)sc32)cc1 | -1.78% |
| O=C(Nc1cccc(C2=NCCCN2)c1)Nc1cccc(C2=NCCCN2)c1 | 1.94% |
| Cn1cncc1C(=O)Nc1cccc(-c2ccc(-c3nc4ccccc4[nH]3)cc2)c1 | -2.33% |
| CS(=O)(=O)Nc1ccc(-c2ccc3ccnc(N)c3c2)cc1 | 7.12% |
| CCCCN1CCN(CCCCNc2c3ccccc3nc3ccccc23)CC1 | 43.1% |
| Cc1nc(N2CCC(C)CC2)c2c3c(sc2n1)CCCC3 | 2.09% |
| CC(O)C1CCCCN1C(=O)c1cccc(-c2cccc(-c3nc4cc(C(F)(F)F)ccc4[nH]3)c2)c1 (centres undefined) | 1.12% |
| CNS(=O)(=O)Cc1ccc(Nc2nccc(Nc3cccc4c3cnn4C(=O)Nc3ccccc3)n2)cc1 | 3.98% |
| CCCCCCCc1c(C)nc2c(OC)cccc2c1O | 8.11% |
| CCN(CC)CC(O)Cc1c2ccc([N+](=O)[O-])cc2nc2cc(OC)c(OC)cc12 (centres undefined) | 1.89% |
| O=C(NCC(CCN1CCC(c2c[nH]c3ccccc23)CC1)c1ccccc1)Nc1ccc(Cl)c(Cl)c1 (centres undefined) | 2.72% |
| c1ccc2sc(Sc3ncnc4sccc34)nc2c1 | -1.08% |
| CCN(C)c1cc(C(=O)N[C@@H](Cc2ccccc2)[C@H](O)CNC(C)(C)c2cccc(OC)c2)cc(N2CCCC2=O)c1 | 0.79% |
| COc1ccc(NC(=O)N2CCc3ccc(OCCN(C(C)C)C(C)C)cc32)cc1C(F)(F)F | 7.33% |

----------
# TARGET: Hexose transporter 1 (Plasmodium falciparum) (UniProt O97467)
# PROCEDURE_SUMMARY: ST_JUDE_LEISH: Cytotoxicity at 2uM final concentration against transgenic Leishmania Mexicana promastigotes LmPfHT that are glucose transport deficient and complemented with the Plasmodium falciparum hexose transporter. Activity is measured by DNA content using SYBR green in vitro
# Type: functional
Below is a list of entries, each paired with its recorded inhibition value.
QUANTITY_MEASURED: inhibition

| COMPOUND | TARGET | QUANTITY_MEASURED | ASSAY_VALUE |
| --- | --- | --- | --- |
| CC(C)(C)c1ccc(CNC(=O)c2ccc(-c3nc4cc(C(C)(C)C)ccc4[nH]3)cc2)cc1 | Hexose transporter 1 (Plasmodium falciparum) (UniProt O97467) | inhibition | 4.23% |
| O=C(O)C[C@H](NC(=O)c1cc(-c2ccc3c(c2)OCO3)no1)C(=O)O.O=C(O)C[C@H](NC(=O)c1conc1-c1ccc2c(c1)OCO2)C(=O)O | Hexose transporter 1 (Plasmodium falciparum) (UniProt O97467) | inhibition | -1.07% |
| CC(C)N1CCN(CCCCNc2c3ccccc3nc3ccccc23)CC1 | Hexose transporter 1 (Plasmodium falciparum) (UniProt O97467) | inhibition | 41% |
| O=C(NCc1cccc(C(F)(F)F)c1)C1CCCN(C(=O)c2ccc(O)c(-c3ccc(Cl)c(Cl)c3)c2)C1 (centres undefined) | Hexose transporter 1 (Plasmodium falciparum) (UniProt O97467) | inhibition | 2.95% |
| O=C(Nc1cccc(CN2CCCN(Cc3ccc(O)cc3)CC2)c1)c1cc(F)cc(F)c1 | Hexose transporter 1 (Plasmodium falciparum) (UniProt O97467) | inhibition | 1.64% |
| COc1cc(-c2cc(-c3ccc(OCCN(C)C)cc3)[nH]c2-c2ccncc2)ccc1Cl | Hexose transporter 1 (Plasmodium falciparum) (UniProt O97467) | inhibition | 0.72% |
| CCCCCn1c(Sc2ccc(C#N)c([N+](=O)[O-])c2)nnc1-c1cccs1 | Hexose transporter 1 (Plasmodium falciparum) (UniProt O97467) | inhibition | 6.4% |
| Cc1cc(N2CCC(N(C)C)C2)nc(Nc2ccc(Cl)cc2)n1 (centres undefined) | Hexose transporter 1 (Plasmodium falciparum) (UniProt O97467) | inhibition | 3.16% |
| Cc1cc(-c2cccc(CNC3CCN(C)CC3)c2)ccc1S(=O)(=O)NC1CCC1 | Hexose transporter 1 (Plasmodium falciparum) (UniProt O97467) | inhibition | 1.62% |

----------
# TARGET: Solute carrier family 2, facilitated glucose transporter member 1 (Homo sapiens) (UniProt P11166)
# Sequence (P11166 whole entry): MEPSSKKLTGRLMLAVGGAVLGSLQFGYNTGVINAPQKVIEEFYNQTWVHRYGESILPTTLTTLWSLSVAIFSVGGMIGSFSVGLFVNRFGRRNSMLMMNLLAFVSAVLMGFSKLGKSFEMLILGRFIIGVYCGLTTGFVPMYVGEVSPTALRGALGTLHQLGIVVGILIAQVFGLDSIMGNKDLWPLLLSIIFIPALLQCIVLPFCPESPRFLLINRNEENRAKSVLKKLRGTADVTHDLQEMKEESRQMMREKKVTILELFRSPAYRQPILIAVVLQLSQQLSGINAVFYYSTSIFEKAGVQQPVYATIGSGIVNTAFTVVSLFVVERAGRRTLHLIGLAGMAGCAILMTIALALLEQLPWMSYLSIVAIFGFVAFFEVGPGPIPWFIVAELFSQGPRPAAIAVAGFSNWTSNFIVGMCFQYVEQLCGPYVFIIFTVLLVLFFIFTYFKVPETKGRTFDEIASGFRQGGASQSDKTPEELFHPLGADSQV
# PROCEDURE_SUMMARY: ST_JUDE_LEISH: Cytotoxicity at 2uM final concentration against transgenic Leishmania Mexicana promastigotes LmGLUT1 that are glucose transport deficient and complemented with the human glucose transporter GLUT1. Activity is measured by DNA content using SYBR green in vitro
# Type: functional
QUANTITY_MEASURED: inhibition

| COMPOUND | ASSAY_VALUE |
| --- | --- |
| CN1CCN(c2ccnc3cc4c(cc23)N(C(=O)Nc2ccc(-c3ccncc3)c3ccccc23)CC4)CC1 | 3.02% |
| CCN(CC)CCCC(C)Nc1cc(C)nc2cc(Cl)ccc12 (centres undefined) | 0.9% |
| CC(C)COc1ccc(Cl)cc1Cc1nc(-c2nc3ccc(CN(C)C)cc3[nH]2)co1 | 4.88% |
| O=C1CCCN1CCCNCc1ccc(-c2cccc(-c3nc4cc(C(F)(F)F)ccc4[nH]3)c2)cc1 | 1.71% |
| CC(=O)Nc1ccc(CN2CCC(NC(=O)c3ccc(-c4cccc(C(F)(F)F)c4)s3)CC2)cc1 | 0.69% |
| CCCCOc1cc(CNCCCCCCNCc2cc(OCCCC)cc3ccccc23)c2ccccc2c1 | 4.98% |
| CNCCNCc1ccc(-c2ccc(-c3nc4cc(C(F)(F)F)ccc4[nH]3)s2)cc1 | 2.21% |
| Cc1cc(N(C)C2CCN(CC3CCCCC3)C2)nc(Nc2ccc(Br)cc2)n1 (centres undefined) | 2.84% |
| Cc1cccc2nc(-c3ccc(-c4cccc(CN5CCN(c6ccc(C#N)cn6)CC5)c4)s3)[nH]c12 | 0.91% |
